target: RORγt (Homo sapiens, UniProt P51449); assay: Cofactor recruitment test (Alpha Screen, biotinylated SRC-1 peptide); type: biochemical; details: read-out: signal value inhibitory rate at test compound 1 μM
The label depends only on inhibition at 1 µM: yes if it is at least 90%, no if it is smaller.

Worked set:
>  <molecule>
COc1ccc2c(n1)CCN(C(=O)[C@H]1C[C@@H](CC(=O)O)C1)[C@H]2C(=O)Nc1cc(F)c([Si](C)(C)C)c(F)c1 [Example 23]

>  <discreteLabel>
no

$$$$
>  <molecule>
COc1ccc2c(c1)CCN(C(=O)C1CC1C(=O)O)[C@H]2C(=O)Nc1cc(F)c([Si](C)(C)C)c(F)c1 (single isomer, unassigned) [Example 3]

>  <discreteLabel>
no

$$$$
>  <molecule>
COc1ccc2c(c1)CCN(C(=O)[C@H]1C[C@@H](C(=O)O)C1)[C@H]2C(=O)Nc1cc(F)c([Si](C)(C)C)c(F)c1 [Example 5]

>  <discreteLabel>
yes

$$$$
>  <molecule>
COc1ccc2c(n1)CCN(C(=O)[C@H]1C[C@@H](C(=O)O)C1)[C@H]2C(=O)Nc1cc(F)c([Si](C)(C)C)c(F)c1 [Example 31]

>  <discreteLabel>
no

$$$$
>  <molecule>
COc1ccc2c(c1)CCN(C(=O)[C@H]1C[C@@H](CC(=O)O)C1)[C@H]2C(=O)Nc1cc(F)c([Si](C)(C)C)c(F)c1 [Example 25]

>  <discreteLabel>
yes

$$$$

Consider the record given below.
// query Is reported inhibition at 1 µM greater than or equal to 90% here: COc1ccc2c(n1)CCN(C(=O)[C@@H]1C[C@H]1CC(=O)O)[C@H]2C(=O)Nc1cc(F)c([Si](C)(C)C)c(F)c1 [Example 14]
// result no

----------
target: RORγt (Homo sapiens, UniProt P51449); assay: Cofactor recruitment test (Alpha Screen, biotinylated SRC-1 peptide); format: biochemical; conditions: test compound 1 μM; read-out: signal value inhibitory rate at test compound 1 μM
The label depends only on inhibition at 1 µM: yes if it is at least 70%, no if it is smaller.

>  <molecule>
COc1ccc2c(n1)CCN(C(=O)[C@H]1C[C@@H](CC(=O)OCc3oc(=O)oc3C)C1)[C@H]2C(=O)Nc1cc(F)c2c(c1)CCC2(C)C [Example 38]

>  <testedOn>
RORγt (Homo sapiens, UniProt P51449)

>  <discreteLabel>
no

$$$$

// query Is reported inhibition at 1 µM greater than or equal to 70% here: COc1ccc2c(n1)CCN(C(=O)[C@H]1C[C@@H](C(=O)OCc3oc(=O)oc3C)C1)[C@H]2C(=O)Nc1cc(F)c2c(c1)CCC2(C)C [Example 44]
// result no

----------
Target: RORγt (Homo sapiens, UniProt P51449)
Sequence (P51449 1-497 isoform P51449-2): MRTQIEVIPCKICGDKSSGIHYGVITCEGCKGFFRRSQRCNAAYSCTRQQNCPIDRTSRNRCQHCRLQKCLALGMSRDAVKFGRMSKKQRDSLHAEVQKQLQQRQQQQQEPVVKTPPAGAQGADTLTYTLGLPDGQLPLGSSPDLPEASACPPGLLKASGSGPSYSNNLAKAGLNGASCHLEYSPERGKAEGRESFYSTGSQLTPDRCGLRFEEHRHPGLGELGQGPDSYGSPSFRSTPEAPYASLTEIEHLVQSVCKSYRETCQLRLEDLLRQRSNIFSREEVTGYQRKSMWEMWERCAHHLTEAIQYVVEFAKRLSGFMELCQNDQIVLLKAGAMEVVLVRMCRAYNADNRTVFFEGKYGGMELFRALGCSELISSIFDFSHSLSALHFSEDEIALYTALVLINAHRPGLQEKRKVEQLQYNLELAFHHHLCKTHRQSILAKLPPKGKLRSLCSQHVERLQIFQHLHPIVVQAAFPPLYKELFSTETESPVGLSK
Assay: Jurkat reporter test (human IL-17 ROR response element luciferase, RORγt vector)
Format: cell-based
Conditions: test compound 3 μM; Jurkat cells; read-out: luminescence level inhibitory rate at test compound 3 μM
For each entry below, report its inhibition at 3 µM value.
Give bare numbers, in %.

Guide cases for inhibition at 3 µM, answers given:
>  <molecule>
COc1ccc2c(c1)CCN(C(=O)[C@@H]1C[C@H]1CC(=O)O)[C@H]2C(=O)Nc1cc(F)c([Si](C)(C)C)c(F)c1 [Example 30]

>  <inhibition at 3 µM (%)>
100

$$$$
>  <molecule>
COc1ccc2c(c1)CCN(C(=O)[C@H]1C[C@@H](CC(=O)O)C1)[C@H]2C(=O)Nc1ccc([Si](C)(C)C)c(F)c1 [Example 33]

>  <inhibition at 3 µM (%)>
102

$$$$
>  <molecule>
COc1ccc2c(n1)CCN(C(=O)[C@H]1C[C@@H](C(=O)O)C1)[C@H]2C(=O)Nc1cc(F)c([Si](C)(C)C)c(F)c1 [Example 31]

>  <inhibition at 3 µM (%)>
102

$$$$
>  <molecule>
COc1ccc2c(c1)CCN(C(=O)[C@H]1C[C@@H](CC(=O)O)C1)[C@H]2C(=O)Nc1cc(F)c([Si](C)(C)C)c(F)c1 [Example 25]

>  <inhibition at 3 µM (%)>
101

$$$$
>  <molecule>
COc1ccc2c(n1)CCN(C(=O)[C@@H]1C[C@H]1CC(=O)O)[C@H]2C(=O)Nc1cc(F)c([Si](C)(C)C)c(F)c1 [Example 14]

>  <inhibition at 3 µM (%)>
100

$$$$

Provide inhibition at 3 µM for all items below, preserving their order.
1. COc1ccc2c(c1)CCN(C(=O)[C@H]1C[C@@H](C(=O)O)C1)[C@H]2C(=O)Nc1ccc([Si](C)(C)C)c(F)c1 [Example 32]
2. COc1ccc2c(c1)CCN(C(=O)[C@H]1C[C@H](C(=O)O)C1)[C@H]2C(=O)Nc1cc(F)c([Si](C)(C)C)c(F)c1 [Example 12]
3. COc1ccc2c(c1)CCN(C(=O)[C@H]1C[C@@H](C(=O)O)C1)[C@H]2C(=O)Nc1cc(F)c([Si](C)(C)C)c(F)c1 [Example 5]
4. COc1ccc2c(c1)CCN(C(=O)[C@H]1C[C@@H]1CC(=O)O)[C@H]2C(=O)Nc1cc(F)c([Si](C)(C)C)c(F)c1 [Example 29]
5. COc1ccc2c(c1)CCN(C(=O)C1CC1C(=O)O)[C@H]2C(=O)Nc1cc(F)c([Si](C)(C)C)c(F)c1 (single isomer, unassigned) [Example 3]
6. COc1ccc2c(c1)CCN(C(=O)C1CC(CC(=O)O)C1)[C@H]2C(=O)Nc1cc(F)c([Si](C)(C)C)c(F)c1 (stereo partly drawn) [Example 4]
7. COc1ccc2c(c1)CCN(C(=O)[C@H]1C[C@H](CC(=O)O)C1)[C@H]2C(=O)Nc1ccc([Si](C)(C)C)c(F)c1 [Example 34]

// result
101
99
100
102
97
100
100

Provide inhibition at 3 µM for all items below, preserving their order.
1. COc1ccc2c(n1)CCN(C(=O)[C@H]1C[C@@H](CC(=O)O)C1)[C@H]2C(=O)Nc1cc(F)c([Si](C)(C)C)c(F)c1 [Example 23]
2. CCOc1ccc2c(c1)CCN(C(=O)[C@H]1C[C@@H](C(=O)O)C1)[C@H]2C(=O)Nc1cc(F)c([Si](C)(C)C)c(F)c1 [Example 8]
3. CCOc1ccc2c(c1)CCN(C(=O)[C@H]1C[C@H](C(=O)O)C1)[C@H]2C(=O)Nc1cc(F)c([Si](C)(C)C)c(F)c1 [Example 9]
4. COc1ccc2c(n1)CCN(C(=O)[C@H]1C[C@H](CC(=O)O)C1)[C@H]2C(=O)Nc1cc(F)c([Si](C)(C)C)c(F)c1 [Example 28]
5. COc1ccc2c(n1)CCN(C(=O)[C@H]1C[C@@H]1CC(=O)O)[C@H]2C(=O)Nc1cc(F)c([Si](C)(C)C)c(F)c1 [Example 13]

// result
1: 101; 2: 100; 3: 99; 4: 101; 5: 104

// query Recorded inhibition at 3 µM of COc1ccc2c(c1)CCN(C(=O)[C@H]1C[C@H](CC(=O)O)C1)[C@H]2C(=O)Nc1cc(F)c([Si](C)(C)C)c(F)c1 [Example 27] , please.
// result 103

src = patent US10093629B2
